Hello, the source for this data is ChEMBL document CHEMBL1131332, in case you need it.

Assay: Pharmacokinetic parameter (CL/F ) was evaluated in Spargue-Dawley rat when given peroral at dose 30 mg/kg
Format: ADME, organism-based
Set-up: dose 30 mg/kg, route oral
Conditions: Sprague-Dawley, in vivo, po
measure.name: CL/F (mL/min/kg)

>>> numeric_result("C[C@H](Sc1nc(N)cc(Cl)n1)c1cc2ccoc2cn1")
7.1

====

Target: Human immunodeficiency virus type 1 reverse transcriptase (Human immunodeficiency virus 1, UniProt Q72547, L100I)
Test: Inhibitory activity against L100I mutant HIV-1 reverse transcriptase
pIC50: −log10 of the molar value.
measure.name: pIC50

>>> numeric_result("C[C@H](Sc1nc(N)cc(Cl)n1)c1cc2ccoc2cn1")
7.41
>>> numeric_result("CC(Sc1nc(N)cc(Cl)n1)c1cc2ccoc2cn1 (configuration not stated)")
7.36
